EXPERIMENT: qHTS assay for small molecule activators of the heat shock response signaling pathway - cell viability counter screen (AID 743209); also: % is scaled to controls: 0 for no effect and ±100 for the full control effect; nearly all actives have a fitted effect of over 50% in size
RUN_CONDITIONS: HSE-bla HeLa viability, CellTiter-Glo luminescence, 5 h; series mostly up to 62.6 µM
Inconclusive results are not listed. Activity calls are given as the source filed them. Calls follow the shape of the dose curve; as a rule, active = well fitted cell-killing curve with a large enough effect in the repeat runs; inconclusive = weak or mixed curves, or effect the other way; inactive = no such curve, though single readings can be large or run the other way.
MEASURE_NAME: activity change, negative = cytotoxicity

Observe how each entry below is paired with its result.
>  <COMPOUND>
CCOC(=O)c1ccccc1

>  <RESULT>
inactive

$$$$
>  <COMPOUND>
CCCC(=O)O[C@]1(C(=O)CC)CC[C@H]2[C@@H]3CCC4=CC(=O)CC[C@]4(C)[C@H]3[C@@H](O)C[C@@]21C

>  <RESULT>
inactive

$$$$
>  <COMPOUND>
CC1=CCC(O)(C(C)C)CC1 (stereo not drawn)

>  <RESULT>
inactive

$$$$
>  <COMPOUND>
CC1(C)[C@@H]2CC[C@@]1(C)[C@H](O)C2

>  <RESULT>
inactive

$$$$

Kindly review the next compound as well.
What value of measured activity change, negative = cytotoxicity is listed for CCCc1nn(C)c2c(=O)[nH]c(-c3cc(S(=O)(=O)N4CCN(C)CC4)ccc3OCC)nc12 ?
inactive

---

SYSTEM: Estrogen receptor (Homo sapiens)
EXPERIMENT: qHTS assay to identify small molecule antagonists of the estrogen receptor alpha (ER-alpha) signaling pathway (AID 743069); also: % is scaled to controls: 0 for no effect and ±100 for the full control effect
RUN_CONDITIONS: HEK293 ER-alpha-UAS-bla, beta-lactamase ratio, antagonist mode; series mostly up to 69.4 µM
Records with an inconclusive call do not appear. Activity calls are given as the source filed them. The call rests on the fitted dose curve; in most records, active means well fitted curve in the direction sought with a large enough effect in the signal ratio in the repeat runs (not every such curve was filed as active); inconclusive means weak or mixed curves, or effect the other way; inactive means no such curve, though single readings can be large or run the other way; the % refers to the signal ratio.
Permitted responses: active, inactive

>  <COMPOUND>
C[N+](C)(C)CCCCCCCCCC[N+](C)(C)C

>  <CATEGORY_LABEL>
inactive

$$$$
>  <COMPOUND>
C[C@H]1C[C@H]2[C@@H]3CCC4=CC(=O)C=C[C@]4(C)[C@H]3C(=O)C[C@]2(C)[C@@]1(O)C(=O)CO

>  <CATEGORY_LABEL>
inactive

$$$$
>  <COMPOUND>
C=CCCCCCCCCC(=O)OCC

>  <CATEGORY_LABEL>
inactive

$$$$
>  <COMPOUND>
CC(=O)c1cnccn1

>  <CATEGORY_LABEL>
inactive

$$$$
>  <COMPOUND>
CCOC(=O)CCC(=O)OCC

>  <CATEGORY_LABEL>
inactive

$$$$
>  <COMPOUND>
O=C(O)Cc1csc(-c2ccc(Cl)cc2)n1

>  <CATEGORY_LABEL>
inactive

$$$$
>  <COMPOUND>
CCCOC(=O)CC

>  <CATEGORY_LABEL>
inactive

$$$$
>  <COMPOUND>
CC(C)(CCC(=O)O)C(=O)O

>  <CATEGORY_LABEL>
inactive

$$$$

Consider the record given below.
What is the recorded call for this compound in the test? CCN(CC#N)c1cccc(C)c1
inactive

---

EXPERIMENT: qHTS assay to test for compound auto fluorescence at 590 nm (red) in HEK293 cell free culture (AID 720683); also: % is scaled to controls: 0 for no effect and ±100 for the full control effect
RUN_CONDITIONS: cell-free medium autofluorescence, Ex540/Em590 red; series mostly up to 91.3 µM
The source made the active and inactive calls. The call rests on the fitted dose curve; in most records, active means well fitted curve in the direction sought with a large enough effect in the repeat runs; inconclusive means weak or mixed curves; inactive means flat fitted curve, though single readings scatter.
MEASURE_NAME: fluorescence, % of fluorescent control

>  <MOLECULE>
Cc1ccc(-c2ncc(Cl)cc2-c2ccc(S(C)(=O)=O)cc2)cn1

>  <fluorescence, % of fluorescent control>
inactive

$$$$
>  <MOLECULE>
CC(C)C(=O)OC(=O)C(C)C

>  <fluorescence, % of fluorescent control>
inactive

$$$$
>  <MOLECULE>
CO/N=C(\C(=O)N[C@@H]1C(=O)N2C(C(=O)O)=C(CSc3nc(=O)c(O)nn3C)CS[C@H]12)c1csc(N)n1

>  <fluorescence, % of fluorescent control>
inactive

$$$$
>  <MOLECULE>
C[C@H]1[C@H](NC(=O)/C(=N/OC(C)(C)C(=O)O)c2csc(N)n2)C(=O)N1S(=O)(=O)O (stereo in doubt)

>  <fluorescence, % of fluorescent control>
0.271% [at 18.6 µM] (inactive)

$$$$
>  <MOLECULE>
CN(C)C(=O)Oc1cccc([N+](C)(C)C)c1

>  <fluorescence, % of fluorescent control>
inactive

$$$$

What value of measured fluorescence, % of fluorescent control is listed for O=C(O)CC(C(=O)O)S(=O)(=O)O (stereo unspecified) ?
inactive

What value of measured fluorescence, % of fluorescent control is listed for Cc1cc(C)c(N=Nc2c(O)c(S(=O)(=O)O)cc3cc(S(=O)(=O)O)ccc23)cc1C ?
0.0378% [at 9.17 µM] (inactive)

What value of measured fluorescence, % of fluorescent control is listed for CCCCCCCCCCCCSC ?
inactive

What value of measured fluorescence, % of fluorescent control is listed for CCOc1ccc2nc(S(N)(=O)=O)sc2c1 ?
inactive

What value of measured fluorescence, % of fluorescent control is listed for CC(C)NNC(=O)c1ccncc1 ?
inactive

---

EXPERIMENT: A CellTox Green Cytotoxicity Assay to monitor cytotoxicity in HEK293 cells - 8 hour (AID 1224884); also: % is scaled to controls: 0 for no effect and ±100 for the full control effect; nearly all actives have a fitted effect of over 35% in size
RUN_CONDITIONS: CellTox Green fluorescence; series mostly up to 76.8 µM
Results filed as inconclusive are left out. The source made the active and inactive calls. Calls follow the shape of the dose curve; as a rule, active = well fitted activation curve with a large enough effect in the repeat runs; inconclusive = weak or mixed curves; inactive = flat fitted curve, though single readings scatter. Where a SMILES comes first, the peptide text is derived from it. [ ]: non-standard residue; d: D form. pGlu = O=C1CC[C@@H](C(=O)O)N1
MEASURE_NAME: cytotoxicity increase

Observe how each entry below is paired with its result.
>  <COMPOUND>
CC(C)CCCO

>  <cytotoxicity increase>
inactive

$$$$
>  <COMPOUND>
CC(=O)c1ccc2ccccc2c1

>  <cytotoxicity increase>
inactive

$$$$
>  <COMPOUND>
Cc1coc2ccccc2c1=O

>  <cytotoxicity increase>
inactive

$$$$
>  <COMPOUND>
COCCOCC(OC)OC

>  <cytotoxicity increase>
inactive

$$$$
>  <COMPOUND>
COC(=O)Nc1ccc(Cl)c(Cl)c1

>  <cytotoxicity increase>
inactive

$$$$

What value of measured cytotoxicity increase is listed for CCN(CC#N)c1cccc(C)c1 ?
inactive

What value of measured cytotoxicity increase is listed for CO[Si](C)(OC)c1ccccc1 ?
inactive

What value of measured cytotoxicity increase is listed for CCCCCCC1CCC(=O)O1 (centres undefined) ?
inactive

What value of measured cytotoxicity increase is listed for CCNC(=O)[C@@H]1CCCN1C(=O)[C@H](CCCN=C(N)N)NC(=O)[C@H](CC(C)C)NC(=O)CNC(=O)[C@H](Cc1ccc(O)cc1)NC(=O)[C@H](CO)NC(=O)[C@H](Cc1c[nH]c2ccccc12)NC(=O)[C@H](Cc1cnc[nH]1)NC(=O)[C@@H]1CCC(=O)N1 ([pGlu]HWSYGLRP-NHEt) ?
inactive

---

SYSTEM: Retinoic acid receptor RXR-alpha (Homo sapiens)
EXPERIMENT: qHTS assay to identify small molecule agonists of the RXR signaling pathway (AID 1159527); also: % is scaled to controls: 0 for no effect and ±100 for the full control effect; nearly all actives have a fitted effect of over 35% in size
RUN_CONDITIONS: HEK293T RXRa-UAS-bla, beta-lactamase ratio, 16 h; series mostly up to 76.8 µM
Results filed as inconclusive are left out. The source made the active and inactive calls. Calls follow the shape of the full dose curve.
MEASURE_NAME: activation

Observe how each entry below is paired with its result.
>  <COMPOUND>
c1coc(CNc2ncnc3nc[nH]c23)c1

>  <activation>
inactive

$$$$
>  <COMPOUND>
CCOC(=O)COc1cc(-n2ncc(C(F)(F)F)c(C)c2=O)c(F)cc1Cl

>  <activation>
inactive

$$$$
>  <COMPOUND>
COC(=O)C1=C(C)NC(C)=C(C(=O)OC(C)C)C1c1cccc2nonc12 (stereo not given)

>  <activation>
inactive

$$$$
>  <COMPOUND>
CCCC(=O)O[C@]1(C(=O)CC)CC[C@H]2[C@@H]3CCC4=CC(=O)CC[C@]4(C)[C@H]3[C@@H](O)C[C@@]21C

>  <activation>
inactive

$$$$
>  <COMPOUND>
C=COCC1CCC(COC=C)CC1 (stereo not given)

>  <activation>
inactive

$$$$

What value of measured activation is listed for CC1(C)[C@@H]2CC[C@@]1(C)[C@H](O)C2 ?
inactive

What value of measured activation is listed for Cc1nc(C2CCCCC2)c(-c2ccc(S(N)(=O)=O)c(F)c2)o1 ?
inactive

What value of measured activation is listed for CC(C)C[C@@H](N)C(=O)O ?
4.08% [at 15.8 µM] (inactive)

What value of measured activation is listed for CCCCCCCCN1CCCC1=O ?
inactive

What value of measured activation is listed for CC(C(=O)O)c1cccc(Oc2ccccc2)c1 (stereo not given) ?
inactive

---

EXPERIMENT: qHTS assay for small molecules that induce genotoxicity in human embryonic kidney cells expressing luciferase-tagged ATAD5 (AID 651632); also: % is scaled to controls: 0 for no effect and ±100 for the full control effect; nearly all actives have a fitted effect of over 15% in size
RUN_CONDITIONS: HEK293T ATAD5-luciferase induction, 16 h; series mostly up to 83.3 µM
Excerpt: U.S. Tox21 Program National Center for Advancing Translational Sciences [NCATS] NIH Chemical Genomics Center [NCGC] U.S. Environmental Protection Agency [EPA] National Institutes of Environmental Health Sciences [NIEHS] National Toxicology Program [NTP] U.S. Food and Drug Administration [FDA] Tox21 Assay Overview: As cancer cells divide rapidly and during every cell division they need to duplicate their genome by DNA replication. The failure to do so results in the cancer cell death. […]
Records with an inconclusive call do not appear. Active and inactive are the calls of the source. Calls come from the whole dose curve; as a rule, active = well fitted activation curve with a large enough effect in the repeat runs; inconclusive = weak or mixed curves; inactive = no such curve, though single readings can be large or run the other way.
Permitted responses: 1.0 = active, 0.0 = inactive

Past entries and their recorded results:
>  <COMPOUND>
Nc1ccn([C@@H]2O[C@H](CO)[C@@H](O)[C@@H]2O)c(=O)n1

>  <CATEGORY_LABEL>
0.0

$$$$
>  <COMPOUND>
CC1(C)OC[C@@H](COC(=O)CCc2ccc(OC[C@@H](O)CNCCNC(=O)N3CCOCC3)cc2)O1

>  <CATEGORY_LABEL>
0.0

$$$$
>  <COMPOUND>
Cc1ccc(C(=O)c2ccccc2)cc1

>  <CATEGORY_LABEL>
0.0

$$$$
>  <COMPOUND>
NC(=O)N1c2ccccc2CC(=O)c2ccccc21

>  <CATEGORY_LABEL>
0.0

$$$$

What is the recorded call for this compound in the test? CCCCc1nc(Cl)c(CO)n1Cc1ccc(-c2ccccc2-c2nn[nH]n2)cc1
0.0

What is the recorded call for this compound in the test? COc1cc(C(=O)NCc2ccc(OCCN(C)C)cc2)cc(OC)c1OC
0.0

What is the recorded call for this compound in the test? [O-][n+]1cccc(CO)c1
0.0
